target: SARS-associated coronavirus protease 3CL^pro (Severe acute respiratory syndrome coronavirus, UniProt P0C6U8)
Listed next: entries and their corresponding Ki.

# GIVEN SMILES, Ki
records = [
    ("O=C(Oc1ccc(F)cc1)c1cc(B(O)O)cc([N+](=O)[O-])c1", "95 µM"),
    ("O=C(NCc1ccccc1)c1cccc(B(O)O)c1", "84 µM"),
    ("O=C(Oc1ccc(OC(=O)c2cc(B(O)O)cc([N+](=O)[O-])c2)c2ccccc12)c1cc(B(O)O)cc([N+](=O)[O-])c1", "10.2 µM"),
    ("O=C(OCc1c(Cl)cccc1Cl)c1cc(B(O)O)cc([N+](=O)[O-])c1", "> 1000 µM"),
]

QUERY: What does the record list as Ki for O=C(Nc1cc(B(O)O)cc([N+](=O)[O-])c1)c1ccccc1F ?
RESULT: > 1000 µM

QUERY: # Ki lookup, item O=C(OCc1cccc(Cl)c1)c1cc(B(O)O)cc([N+](=O)[O-])c1
RESULT: 91.8 µM

QUERY: Param item = O=C(Oc1c(Cl)cc(Cl)cc1[N+](=O)[O-])c1cc(B(O)O)cc([N+](=O)[O-])c1 ; retrieve measured Ki.
RESULT: 6.9 µM
